Experiment: Label-free MST, peptide binding to SMA-QA nanodiscs
Settings: label-free MST, SMA-QA nanodiscs (cationic belt), 2500 nM AMP, Hill fit; mean ± SD of triplicates; '>' = minimum value; read-out: SMA-QA KD, DMPC/PG (MST)
Residues, ends and D or L forms follow the SMILES beside them.
measurementLabel: pKd
Give bare numbers, as −log10 of the molar value.

- NCCCC[C@@H]1NC(=O)[C@H](CCCCN)NC(=O)[C@H](Cc2c[nH]c3ccccc23)NC(=O)[C@H](Cc2c[nH]c3ccccc23)NC(=O)[C@H](Cc2c[nH]c3ccccc23)NC(=O)[C@H](CCCCN)NC1=O [compound 3] (cyclo(WWWKKK)): 3.84

// below: pKd requested for another compound
# input # lookup: pKd of N=C(N)NCCC[C@@H]1NC(=O)[C@H](CCCNC(=N)N)NC(=O)[C@H](Cc2c[nH]c3ccccc23)NC(=O)[C@H](Cc2c[nH]c3ccccc23)NC(=O)[C@H](Cc2c[nH]c3ccccc23)NC(=O)[C@H](CCCNC(=N)N)NC1=O [compound 1] (cyclo(WWWRRR))
# output 4.40

---

Assay: Label-free MST, peptide binding to SMA nanodiscs
Details: partition coefficient from initial fluorescence on MST instrument, SMA nanodiscs, hyperbolic fit; ± SD of triplicate fits
Non-standard residues stand in square brackets, D forms with d. Residues, ends and D or L forms follow the SMILES beside them.
measurementLabel: SMA KP, DMPC (MST)

Recorded results for 4 molecules are shown here.
- N=C(N)NCCC[C@@H]1NC(=O)[C@H](CCCNC(=N)N)NC(=O)[C@H](Cc2c[nH]c3ccccc23)NC(=O)[C@H](Cc2c[nH]c3ccccc23)NC(=O)[C@H](Cc2c[nH]c3ccccc23)NC(=O)[C@H](CCCNC(=N)N)NC1=O [compound 1] (cyclo(WWWRRR)): 10.40 ± 1.52 × 10^3
- CC(C)C[C@@H]1NC(=O)[C@@H](CCCNC(=N)N)NC(=O)[C@H](CCCCN)NC(=O)[C@H](CC(N)=O)NC(=O)[C@@H](Cc2c[nH]c3ccccc23)NC(=O)[C@H](Cc2c[nH]c3ccccc23)NC1=O [compound 5] (cyclo(LW[dW]NK[dR])): 6.98 ± 1.24 × 10^3
- NCCCC[C@@H]1NC(=O)[C@H](CCCCN)NC(=O)[C@H](Cc2c[nH]c3ccccc23)NC(=O)[C@H](Cc2c[nH]c3ccccc23)NC(=O)[C@H](Cc2c[nH]c3ccccc23)NC(=O)[C@H](CCCCN)NC1=O [compound 3] (cyclo(WWWKKK)): 2.34 ± 1.40 × 10^3
- NCCCC[C@@H]1NC(=O)[C@H](Cc2c[nH]c3ccccc23)NC(=O)[C@H](CCCCN)NC(=O)[C@H](Cc2c[nH]c3ccccc23)NC(=O)[C@H](CCCCN)NC(=O)[C@H](Cc2c[nH]c3ccccc23)NC1=O [compound 4] (cyclo(WKWKWK)): 0.70 ± 0.11 × 10^3

# input Query: SMA KP, DMPC (MST); subject: N=C(N)NCCC[C@@H]1NC(=O)[C@H](Cc2c[nH]c3ccccc23)NC(=O)[C@H](CCCNC(=N)N)NC(=O)[C@H](Cc2c[nH]c3ccccc23)NC(=O)[C@H](CCCNC(=N)N)NC(=O)[C@H](Cc2c[nH]c3ccccc23)NC1=O [compound 2] (cyclo(WRWRWR))
# output 9.72 ± 2.69 × 10^3

---

Provide the reported koff PC of each item.
Assay: SPR, peptide binding to LUVs immobilized on L1 chip
Conditions: SPR, DMPC LUVs on L1 chip, 10 mM HEPES pH 7.4 100 mM NaCl, room temperature, 400 s dissociation phase, two-population fit averaged (Figueira et al.)
Non-standard residues stand in square brackets, D forms with d. Residues, ends and D or L forms follow the SMILES beside them.
Reply with the number, then its unit.

* NCCCC[C@@H]1NC(=O)[C@H](Cc2c[nH]c3ccccc23)NC(=O)[C@H](CCCCN)NC(=O)[C@H](Cc2c[nH]c3ccccc23)NC(=O)[C@H](CCCCN)NC(=O)[C@H](Cc2c[nH]c3ccccc23)NC1=O [compound 4] (cyclo(WKWKWK)) | 0.90 ± 0.24 s⁻¹

I have 2 molecules here; please give me koff PC for each one.
1. N=C(N)NCCC[C@@H]1NC(=O)[C@H](CCCNC(=N)N)NC(=O)[C@H](Cc2c[nH]c3ccccc23)NC(=O)[C@H](Cc2c[nH]c3ccccc23)NC(=O)[C@H](Cc2c[nH]c3ccccc23)NC(=O)[C@H](CCCNC(=N)N)NC1=O [compound 1] (cyclo(WWWRRR))
2. CC(C)C[C@@H]1NC(=O)[C@@H](CCCNC(=N)N)NC(=O)[C@H](CCCCN)NC(=O)[C@H](CC(N)=O)NC(=O)[C@@H](Cc2c[nH]c3ccccc23)NC(=O)[C@H](Cc2c[nH]c3ccccc23)NC1=O [compound 5] (cyclo(LW[dW]NK[dR]))

# output
1. 0.22 ± 0.02 s⁻¹
2. 1.76 ± 0.12 s⁻¹

Provide reported koff PC for each item, in the same order as listed.
1. N=C(N)NCCC[C@@H]1NC(=O)[C@H](Cc2c[nH]c3ccccc23)NC(=O)[C@H](CCCNC(=N)N)NC(=O)[C@H](Cc2c[nH]c3ccccc23)NC(=O)[C@H](CCCNC(=N)N)NC(=O)[C@H](Cc2c[nH]c3ccccc23)NC1=O [compound 2] (cyclo(WRWRWR))
2. NCCCC[C@@H]1NC(=O)[C@H](CCCCN)NC(=O)[C@H](Cc2c[nH]c3ccccc23)NC(=O)[C@H](Cc2c[nH]c3ccccc23)NC(=O)[C@H](Cc2c[nH]c3ccccc23)NC(=O)[C@H](CCCCN)NC1=O [compound 3] (cyclo(WWWKKK))

# output
1: 0.87 ± 0.19 s⁻¹; 2: 0.48 ± 0.07 s⁻¹

---

For each of the molecules below, state its pKd.
Test: Label-free MST, peptide binding to SMA-QA nanodiscs
Conditions: label-free MST, SMA-QA nanodiscs (cationic belt), 2500 nM AMP, Hill fit; mean ± SD of triplicates; '>' = minimum value; read-out: SMA-QA KD, DMPC (MST)
Residues, ends and D or L forms follow the SMILES beside them.
Give bare numbers, as −log10 of the molar value.

Give pKd for all molecules that follow.
1. N=C(N)NCCC[C@@H]1NC(=O)[C@H](CCCNC(=N)N)NC(=O)[C@H](Cc2c[nH]c3ccccc23)NC(=O)[C@H](Cc2c[nH]c3ccccc23)NC(=O)[C@H](Cc2c[nH]c3ccccc23)NC(=O)[C@H](CCCNC(=N)N)NC1=O [compound 1] (cyclo(WWWRRR))
2. NCCCC[C@@H]1NC(=O)[C@H](CCCCN)NC(=O)[C@H](Cc2c[nH]c3ccccc23)NC(=O)[C@H](Cc2c[nH]c3ccccc23)NC(=O)[C@H](Cc2c[nH]c3ccccc23)NC(=O)[C@H](CCCCN)NC1=O [compound 3] (cyclo(WWWKKK))

# output
3.85
3.57

---

Assay: Label-free MST, peptide binding to 100 nm vesicles
Details: partition coefficient from initial fluorescence on MST instrument, hyperbolic fit, 2500 nM AMP, TRIS pH 7.4; ± SD of triplicate fits; judged unreliable by authors
Description: For KD evaluation by MST, FHot was registered during the temperature related intensity change (TRIC) phase of the MST trace (see “Methods”). […] MST measurements were conducted with excitation power set to 15%, with the MST power set to high. […] For the evaluation of KP, the initial fluorescence was taken as the value reported during the period before the application of the laser. The MST response and initial fluorescence were extracted directly as a text file for further processing in MATLAB. […]
Residues, ends and D or L forms follow the SMILES beside them.
Consider the following compounds; for each one, report its Vesicle KP, DMPC/PG (MST).

- NCCCC[C@@H]1NC(=O)[C@H](CCCCN)NC(=O)[C@H](Cc2c[nH]c3ccccc23)NC(=O)[C@H](Cc2c[nH]c3ccccc23)NC(=O)[C@H](Cc2c[nH]c3ccccc23)NC(=O)[C@H](CCCCN)NC1=O [compound 3] (cyclo(WWWKKK)): 11.05 ± 4.49 × 10^3

Next, consider the following compound.
# input So what's the measured Vesicle KP, DMPC/PG (MST) for this one? NCCCC[C@@H]1NC(=O)[C@H](Cc2c[nH]c3ccccc23)NC(=O)[C@H](CCCCN)NC(=O)[C@H](Cc2c[nH]c3ccccc23)NC(=O)[C@H](CCCCN)NC(=O)[C@H](Cc2c[nH]c3ccccc23)NC1=O [compound 4] (cyclo(WKWKWK))
# output 14.90 ± 4.84 × 10^3

---

Experiment: Label-free MST, peptide binding to SMA nanodiscs
Conditions: partition coefficient from initial fluorescence on MST instrument, SMA nanodiscs, hyperbolic fit; ± SD of triplicate fits
Non-standard residues stand in square brackets, D forms with d. Residues, ends and D or L forms follow the SMILES beside them.
For each entry below, report its SMA KP, DMPC/PG (MST) value.

Examples from the recorded data:
* N=C(N)NCCC[C@@H]1NC(=O)[C@H](CCCNC(=N)N)NC(=O)[C@H](Cc2c[nH]c3ccccc23)NC(=O)[C@H](Cc2c[nH]c3ccccc23)NC(=O)[C@H](Cc2c[nH]c3ccccc23)NC(=O)[C@H](CCCNC(=N)N)NC1=O [compound 1] (cyclo(WWWRRR)) | 10.27 ± 2.13 × 10^3
* CC(C)C[C@@H]1NC(=O)[C@@H](CCCNC(=N)N)NC(=O)[C@H](CCCCN)NC(=O)[C@H](CC(N)=O)NC(=O)[C@@H](Cc2c[nH]c3ccccc23)NC(=O)[C@H](Cc2c[nH]c3ccccc23)NC1=O [compound 5] (cyclo(LW[dW]NK[dR])) | 4.75 ± 0.32 × 10^3
* N=C(N)NCCC[C@@H]1NC(=O)[C@H](Cc2c[nH]c3ccccc23)NC(=O)[C@H](CCCNC(=N)N)NC(=O)[C@H](Cc2c[nH]c3ccccc23)NC(=O)[C@H](CCCNC(=N)N)NC(=O)[C@H](Cc2c[nH]c3ccccc23)NC1=O [compound 2] (cyclo(WRWRWR)) | 3.57 ± 0.36 × 10^3
* NCCCC[C@@H]1NC(=O)[C@H](CCCCN)NC(=O)[C@H](Cc2c[nH]c3ccccc23)NC(=O)[C@H](Cc2c[nH]c3ccccc23)NC(=O)[C@H](Cc2c[nH]c3ccccc23)NC(=O)[C@H](CCCCN)NC1=O [compound 3] (cyclo(WWWKKK)) | 4.21 ± 0.43 × 10^3

Pending compound:
# input Param item = NCCCC[C@@H]1NC(=O)[C@H](Cc2c[nH]c3ccccc23)NC(=O)[C@H](CCCCN)NC(=O)[C@H](Cc2c[nH]c3ccccc23)NC(=O)[C@H](CCCCN)NC(=O)[C@H](Cc2c[nH]c3ccccc23)NC1=O [compound 4] (cyclo(WKWKWK)) ; retrieve measured SMA KP, DMPC/PG (MST).
# output 1.14 ± 0.12 × 10^3
